- assay_summary: Binding affinity against neurotensin receptor.
Exercise: state measured pKi for each of the compounds provided.
One number for each entry, as −log10 of the molar value.

# compound, pKi
measured = [
    ("CC(C)CC(NC(=O)CC[C@@H]1NC(=O)[C@H](Cc2c[nH]c3ccccc23)NC(=O)[C@@H]2CCCN2C(=O)[C@H](CCCCN)NC(=O)[C@H](CCCN=C(N)N)N(C)C(=O)CN(C(=O)[C@@H]2CCCN2C(=O)[C@H](CCCCN)NC(=O)[C@H](CC(N)=O)NC(=O)[C@H](CCC(=O)O)NC(=O)[C@H](Cc2ccc(O)cc2)NC(=O)[C@H](CC(C)C)NC(=O)[C@@H](N)CCC(=O)O)C1=O)C(=O)O (stereo partly drawn)", 7.55),
]

Value of measured pKi for the entry CC(C)C[C@H](NC(=O)[C@@H](N)CCC(=O)O)C(=O)N[C@@H](Cc1ccc(O)cc1)C(=O)N[C@@H](CCC(=O)O)C(=O)N[C@@H](CC(N)=O)C(=O)N[C@@H](CCCCN)C(=O)N1CCC[C@H]1C(=O)N1C(=O)[C@H](CCC(=O)NCC(=O)O)NC(=O)[C@H](Cc2c[nH]c3ccccc23)NC(=O)[C@@H]2CCCN2C(=O)[C@H](CCCCN)NC(=O)[C@H]1CCCN=C(N)N : 6.60

----------
- assay_summary: Binding affinity against neurotensin receptor.
Exercise: state measured pKi for each of the compounds provided.
Give bare numbers, as −log10 of the molar value.

These recorded examples may help you get a feel for the data.
# structure, pKi
records = [
    ("CC(C)C[C@H](NC(=O)[C@H]1NC(=O)[C@H](Cc2c[nH]c3ccccc23)NC(=O)[C@H]2CCCN2C(=O)[C@H](NC(=O)[C@H](CCCN=C(N)N)N(C)C(=O)[C@@H]2CCCN2C(=O)[C@H](CCCCN)NC(=O)[C@H](CC(N)=O)NC(=O)[C@H](CCC(=O)O)NC(=O)[C@H](Cc2ccc(O)cc2)NC(=O)[C@H](CC(C)C)NC(=O)[C@@H](N)CCC(=O)O)C(C)(C)SSC1(C)C)C(=O)O", 5.36),
    ("CC(C)C[C@H](NC(=O)[C@@H](N)CCC(=O)O)C(=O)N[C@@H](Cc1ccc(O)cc1)C(=O)N[C@@H](CCC(=O)O)C(=O)N[C@@H](CC(N)=O)C(=O)N[C@@H](CCCCN)C(=O)N1CCC[C@H]1C(=O)N(C)[C@@H](CCCN=C(N)N)C(=O)N1C(=O)[C@H](CC(C)C)NC(=O)[C@@H](CCC(=O)O)NC(=O)[C@H](Cc2c[nH]c3ccccc23)NC(=O)[C@@H]2CCCN2C(=O)[C@@H]1CCCCN", 5.80),
]

# ---- query compound ----
Value of measured pKi for the entry CC(C)C[C@H](NC(=O)[C@@H](N)CCC(=O)O)C(=O)N[C@@H](Cc1ccc(O)cc1)C(=O)N[C@@H](CCC(=O)O)C(=O)N[C@@H](CC(N)=O)C(=O)N[C@@H](CCCCN)C(=O)N1CCC[C@H]1C(=O)N(C)[C@@H](CCCN=C(N)N)C(=O)N1C(=O)[C@H](CC(C)C)NC(=O)[C@H](CCC(=O)O)NC(=O)[C@H](Cc2c[nH]c3ccccc23)NC(=O)[C@@H]2CCCN2C(=O)[C@@H]1CCCCN : 6.11

----------
- assay_summary: Binding affinity against neurotensin receptor.
Exercise: state measured pKi for each of the compounds provided.
Numbers only, as −log10 of the molar value.

# structure, pKi
records = [
    ("CC(C)C[C@H](NC(=O)[C@@H](N)CCC(=O)O)C(=O)N[C@@H](Cc1ccc(O)cc1)C(=O)N[C@@H](CCC(=O)O)C(=O)N[C@@H](CC(N)=O)C(=O)N[C@@H](CCCCN)C(=O)N1CCC[C@H]1C(=O)N1C(=O)[C@H](CC(C)C)NC(=O)[C@H](C(C)(C)C)NC(=O)[C@H](Cc2c[nH]c3ccccc23)NC(=O)[C@@H]2CCCN2C(=O)[C@H](CCCCN)NC(=O)[C@@H]1CCCN=C(N)N", 6.39),
]

Value of measured pKi for the entry CC(C)C[C@H](NC(=O)[C@H]1NC(=O)[C@H](Cc2c[nH]c3ccccc23)NC(=O)[C@H]2CCCN2C(=O)[C@H](NC(=O)[C@H](CCCN=C(N)N)N(C)C(=O)[C@@H]2CCCN2C(=O)[C@H](CCCCN)NC(=O)[C@H](CC(N)=O)NC(=O)[C@H](CCC(=O)O)NC(=O)[C@H](Cc2ccc(O)cc2)NC(=O)[C@H](CC(C)C)NC(=O)[C@@H](N)CCC(=O)O)CSSC1(C)C)C(=O)O : 7.08

----------
- assay_summary: Binding affinity against neurotensin receptor.
Non-standard residues stand in square brackets, D forms with d. Residues, ends and D or L forms follow the SMILES beside them. NMeR = CN[C@@H](CCCNC(=N)N)C(=O)O; Tle = CC(C)(C)[C@H](N)C(=O)O
outcome_measure: pKi
Give bare numbers, as −log10 of the molar value.

Hey, quick one: what's pKi for each of these?
1. CC(C)C[C@H](NC(=O)C[C@@H]1NC(=O)[C@H](Cc2c[nH]c3ccccc23)NC(=O)[C@@H]2CCCN2C(=O)[C@H](CCCCN)NC(=O)[C@@H](CCCN=C(N)N)N(C(=O)[C@@H]2CCCN2C(=O)[C@H](CCCCN)NC(=O)[C@H](CC(N)=O)NC(=O)[C@H](CCC(=O)O)NC(=O)[C@H](Cc2ccc(O)cc2)NC(=O)[C@H](CC(C)C)NC(=O)[C@@H](N)CCC(=O)O)C1=O)C(=O)O
2. CC(=O)N(C(=O)[C@@H]1CCCN1C(=O)[C@H](CCCCN)NC(=O)[C@H](CC(N)=O)NC(=O)[C@H](CCC(=O)O)NC(=O)[C@H](Cc1ccc(O)cc1)NC(=O)[C@H](CC(C)C)NC(=O)[C@@H](N)CCC(=O)O)[C@@H](CCCN=C(N)N)C(=O)N[C@@H](CCCCN)C(=O)N1CCC[C@H]1C(=O)N[C@@H](Cc1c[nH]c2ccccc12)C(=O)N[C@@H](CCC(N)=O)C(=O)N[C@@H](CC(C)C)C(=O)O

[6.04, 6.59]

Hey, quick one: what's pKi for each of these?
1. CC(C)C[C@H](NC(=O)[C@@H](NC(=O)[C@H](Cc1c[nH]c2ccccc12)NC(=O)[C@@H]1CCCN1C(=O)[C@H](CCCCN)NC(=O)[C@H](CCCN=C(N)N)N(C)C(=O)[C@@H]1CCCN1C(=O)[C@H](CCCCN)NC(=O)[C@H](CC(N)=O)NC(=O)[C@H](CCC(=O)O)NC(=O)[C@H](Cc1ccc(O)cc1)NC(=O)[C@H](CC(C)C)NC(=O)[C@@H](N)CCC(=O)O)C(C)(C)C)C(=O)O (H-ELYENKP[NMeR]KPW[Tle]L-OH)
2. CC(C)C[C@H](NC(=O)[C@@H]1CSSC[C@@H](NC(=O)[C@H](CCCN=C(N)N)N(C)C(=O)[C@@H]2CCCN2C(=O)[C@H](CCCCN)NC(=O)[C@H](CC(N)=O)NC(=O)[C@H](CCC(=O)O)NC(=O)[C@H](Cc2ccc(O)cc2)NC(=O)[C@H](CC(C)C)NC(=O)[C@@H](N)CCC(=O)O)C(=O)N2CCC[C@@H]2C(=O)N[C@@H](Cc2c[nH]c3ccccc23)C(=O)N1)C(=O)O
3. CC(C)C[C@H](NC(=O)CCC[C@@H]1NC(=O)[C@H](Cc2c[nH]c3ccccc23)NC(=O)[C@@H]2CCCN2C(=O)[C@H](CCCCN)NC(=O)[C@H](CCCN=C(N)N)N(C(=O)[C@@H]2CCCN2C(=O)[C@H](CCCCN)NC(=O)[C@H](CC(N)=O)NC(=O)[C@H](CCC(=O)O)NC(=O)[C@H](Cc2ccc(O)cc2)NC(=O)[C@H](CC(C)C)NC(=O)[C@@H](N)CCC(=O)O)C1=O)C(=O)O

9.17
6.09
6.08

----------
- assay_summary: Binding affinity against neurotensin receptor.
Exercise: state measured Ki for each of the compounds provided.
One number for each entry, in nM.

# structure, readout_unit, Ki
records = [
    ("CC(C)C[C@H](NC(=O)[C@@H](N)CCC(=O)O)C(=O)N[C@@H](Cc1ccc(O)cc1)C(=O)N[C@@H](CCC(=O)O)C(=O)N[C@@H](CC(N)=O)C(=O)N[C@@H](CCCCN)C(=O)N1CCC[C@H]1C(=O)N(C)[C@@H](CCCN=C(N)N)C(=O)N1C(=O)[C@H](CC(C)C)NC(=O)[C@@H](CCC(=O)O)NC(=O)[C@H](Cc2c[nH]c3ccccc23)NC(=O)[C@@H]2CCCN2C(=O)[C@H]1CCCCN", "nM", 2500),
]

Value of measured Ki for the entry CC(C)C[C@H](NC(=O)[C@@H](N)CCC(=O)O)C(=O)N[C@@H](Cc1ccc(O)cc1)C(=O)N[C@@H](CCC(=O)O)C(=O)N[C@@H](CC(N)=O)C(=O)N[C@@H](CCCCN)C(=O)N1CCC[C@H]1C(=O)N1C(=O)[C@H](CC(C)C)NC(=O)[C@H](C(C)(C)C)NC(=O)[C@H](Cc2ccc(O)cc2)NC(=O)[C@@H]2CCCN2C(=O)[C@H](CCCCN)NC(=O)[C@H]1CCCN=C(N)N : 440

Data provenance: ChEMBL document CHEMBL1128568
